Source listed as patent US10654895B2.

- Tested on: Pseudomonas aeruginosa
- condition summary: Pseudomonas aeruginosa, strain not specified (Table 8)
No end group written: not given here.
Can you tell me Minimum inhibitory concentration MIC for the items I'm about to list?
Write it as a number; the unit µg/mL goes unstated.

// FIRIARLLRIF [Ctryamp, FIRIARLLRIF] : Minimum inhibitory concentration MIC value = 8

Recorded Minimum inhibitory concentration MIC (sequence FIKRIARLLRKIF [BmKAMP1-M, reference compound] ): 50
